System: SK-MEL-5
ASSAY NOTES: NCI tumour cell line growth inhibition, 48 h
Active and inactive are the calls of the source. No stated cut-off is given here; in the data, active = GI50 up to about 1.1 µM and inactive = higher.
Just give me one of these, please: active, inactive

{"COMPOUND": "COc1ccc(C2SC(=N)Nc3c2c(C)nn3C(=O)c2ccncc2)cc1 (stereo not given)", "QUALITATIVE LABEL": "inactive"}
{"COMPOUND": "C[n+]1cccc(NC(=O)c2ccc(NC(=O)C34CCC(C(=O)Nc5ccc(C(=O)Nc6ccc[n+](C)c6)cc5)(CC3)CC4)cc2)c1", "QUALITATIVE LABEL": "inactive"}
{"COMPOUND": "Cc1nnc2cc(C(=O)O)c3ccccc3n2c1=O", "QUALITATIVE LABEL": "inactive"}
{"COMPOUND": "Cn1c(=O)c2c(no[n+]2[O-])c2ccccc21", "QUALITATIVE LABEL": "inactive"}
{"COMPOUND": "CCOP1(=O)C=C(Sc2ccc([N+](=O)[O-])cc2[N+](=O)[O-])C(C)(C)O1 (stereo not given)", "QUALITATIVE LABEL": "inactive"}
{"COMPOUND": "CN1CCN(c2ncc3c(n2)sc2c(=O)n(-c4ccccc4)cnc23)CC1", "QUALITATIVE LABEL": "inactive"}
{"COMPOUND": "CCOP(=O)(OCC)/C(C#N)=C/c1cccn1Cc1ccccc1", "QUALITATIVE LABEL": "inactive"}
{"COMPOUND": "COc1ccc2c(c1)c(=O)c1c(NCCNCCO)ccc3c(=O)n(CCN(C)C)c(=O)n2c31", "QUALITATIVE LABEL": "active"}

Q: Please state the recorded outcome for this compound: COC(=O)C1(O)c2ccccc2N=C2C1CCN2C (stereo not given)
A: inactive

Q: Please give the result for CCCCCCCCC[C@@H]1C[C@H](O)[C@H](Cc2ccccc2)N1C(=O)OC(C)(C)C too.
A: inactive
